Attribution: the kinase profiling compilation of Christmann-Franck et al. (2016)

# tested_on: ABL1 (human)
# protocol_notes: KINOMEscan competition binding
# condition_description: compound 10.0 µM
# reported kinase still bound, per cent of control; entries follow
quantity: kinase still bound, per cent of control

COc1cc(C)c(Sc2cnc(NC(=O)c3ccc(CNC(C)C(C)C)cc3)s2)cc1C(=O)N1CCN(C(C)=O)CC1 (stereo not given) :: 100%
COc1ccc(N(C(=O)Oc2cc(C(=O)Nc3cccc(C(F)(F)F)c3)ccc2C)c2ccnc(Nc3ccc(N4CCN(C)CC4)cc3)n2)c(OC)c1 :: 2%
Cc1cn(-c2cc(C(=O)Nc3ccc(C)c(NC(=O)c4ccno4)c3)cc(C(F)(F)F)c2)cn1 :: 8%
CCOc1cc(N2CCC(O)CC2)ccc1Nc1ncc2c(n1)N(C)c1ccccc1C(=O)N2C :: 100%
COc1cc(N2CCC(C(N)=O)CC2)ccc1Nc1nc(N)c(Cl)c(Nc2ccccc2S(=O)(=O)C(C)C)n1 :: 100%

---

# reported kinase still bound, per cent of control; entries follow
# tested_on: RPS6KA6 KD2 (human) (UniProt Q9UK32)
# Sequence (Q9UK32 whole entry, looked up): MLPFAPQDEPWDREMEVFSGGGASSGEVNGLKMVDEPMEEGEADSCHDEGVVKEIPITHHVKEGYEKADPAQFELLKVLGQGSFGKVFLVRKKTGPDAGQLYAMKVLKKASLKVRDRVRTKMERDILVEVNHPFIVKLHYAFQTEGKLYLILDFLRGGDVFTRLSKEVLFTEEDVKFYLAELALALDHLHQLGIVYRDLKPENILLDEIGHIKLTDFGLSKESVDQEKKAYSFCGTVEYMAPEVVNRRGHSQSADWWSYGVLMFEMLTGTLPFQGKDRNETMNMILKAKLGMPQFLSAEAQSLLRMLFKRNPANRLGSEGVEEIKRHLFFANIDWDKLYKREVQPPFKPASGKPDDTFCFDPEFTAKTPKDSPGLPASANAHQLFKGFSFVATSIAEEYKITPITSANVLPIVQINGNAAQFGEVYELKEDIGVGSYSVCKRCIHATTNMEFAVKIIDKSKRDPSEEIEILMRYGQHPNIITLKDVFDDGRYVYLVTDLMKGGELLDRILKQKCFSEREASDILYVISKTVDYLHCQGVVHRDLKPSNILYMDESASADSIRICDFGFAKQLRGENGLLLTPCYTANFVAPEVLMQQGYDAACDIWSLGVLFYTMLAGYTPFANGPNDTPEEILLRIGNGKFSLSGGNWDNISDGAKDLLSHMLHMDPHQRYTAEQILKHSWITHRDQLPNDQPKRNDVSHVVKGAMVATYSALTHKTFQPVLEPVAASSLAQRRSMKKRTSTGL
# protocol_notes: KINOMEscan competition binding
# condition_description: compound 10.0 µM
quantity: kinase still bound, per cent of control

O=c1[nH]c2ccccc2n1C1CCN(Cc2ccc(-c3nc4cc5[nH]cnc5cc4nc3-c3ccccc3)cc2)CC1 :: 100%
CCN(CCO)CCCOc1ccc2c(Nc3cc(CC(=O)Nc4cccc(F)c4)[nH]n3)ncnc2c1 :: 64%
CNC(=O)Nc1ccc(-c2nc(N3CC4CCC(C3)O4)c3cnn(C4CCC5(CC4)OCCO5)c3n2)cc1 :: 84%
CCc1nc(-c2cccc(C)c2)c(-c2ccnc(NC(=O)c3ccccc3)c2)s1 :: 4.3%
COc1cc2ncnc(Nc3cccc(Cl)c3)c2cc1OC :: 38%
COc1cc(C)c(Sc2cnc(NC(=O)c3ccc(CNC(C)C(C)C)cc3)s2)cc1C(=O)N1CCN(C(C)=O)CC1 (centres undefined) :: 100%
CC(=O)c1c(C)c2cnc(Nc3ccc(N4CCNCC4)cn3)nc2n(C2CCCC2)c1=O :: 38%
COc1cc(N2CCC(C(N)=O)CC2)ccc1Nc1nc(N)c(Cl)c(Nc2ccccc2S(=O)(=O)C(C)C)n1 :: 9%
N#C/C(=C1/Nc2ccccc2S1)c1ccnc(NCCc2cccnc2)n1 :: 52%

---

# tested_on: MAPK7 (human)
# protocol_notes: KINOMEscan competition binding
# condition_description: compound 10.0 µM
quantity: kinase still bound, per cent of control

CCc1nc(-c2cccc(C)c2)c(-c2ccnc(NC(=O)c3ccccc3)c2)s1 :: 98%
CCCS(=O)(=O)Nc1ccc(F)c(C(=O)c2c[nH]c3ncc(Cl)cc23)c1F :: 65%
Cc1cn(-c2cc(C(=O)Nc3ccc(C)c(NC(=O)c4ccno4)c3)cc(C(F)(F)F)c2)cn1 :: 100%
COc1ccc(N(C(=O)Oc2cc(C(=O)Nc3cccc(C(F)(F)F)c3)ccc2C)c2ccnc(Nc3ccc(N4CCN(C)CC4)cc3)n2)c(OC)c1 :: 15%
CC(=O)c1c(C)c2cnc(Nc3ccc(N4CCNCC4)cn3)nc2n(C2CCCC2)c1=O :: 0.65%
COc1cc2c(Nc3ccc(NC(=O)c4ccccc4)cc3)ncnc2cc1OCCCN1CCOCC1 :: 89%
COc1cc2ncnc(Nc3cccc(Cl)c3)c2cc1OC :: 100%
CCN(CCO)CCCOc1ccc2c(Nc3cc(CC(=O)Nc4cccc(F)c4)[nH]n3)ncnc2c1 :: 87%
O=c1[nH]c2ccccc2n1C1CCN(Cc2ccc(-c3nc4cc5[nH]cnc5cc4nc3-c3ccccc3)cc2)CC1 :: 100%

---

# tested_on: NEK2 (human) (UniProt P51955)
# Sequence (P51955 whole entry, looked up): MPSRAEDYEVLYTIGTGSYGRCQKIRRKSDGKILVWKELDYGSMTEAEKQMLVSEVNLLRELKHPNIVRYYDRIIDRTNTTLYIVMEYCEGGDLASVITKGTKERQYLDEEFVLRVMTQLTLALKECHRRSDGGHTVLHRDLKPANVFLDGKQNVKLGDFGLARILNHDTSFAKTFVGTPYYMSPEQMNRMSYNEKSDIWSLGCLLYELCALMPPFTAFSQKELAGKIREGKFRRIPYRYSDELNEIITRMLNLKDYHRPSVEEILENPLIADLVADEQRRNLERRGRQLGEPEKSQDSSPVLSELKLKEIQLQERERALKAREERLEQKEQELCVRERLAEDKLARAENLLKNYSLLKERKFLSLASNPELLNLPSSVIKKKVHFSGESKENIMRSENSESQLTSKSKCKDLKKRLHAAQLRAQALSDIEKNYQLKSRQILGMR
# protocol_notes: KINOMEscan competition binding
# condition_description: compound 10.0 µM
quantity: kinase still bound, per cent of control (%)

COc1cc2ncnc(Nc3cccc(Cl)c3)c2cc1OC :: 92
COc1ccc(N(C(=O)Oc2cc(C(=O)Nc3cccc(C(F)(F)F)c3)ccc2C)c2ccnc(Nc3ccc(N4CCN(C)CC4)cc3)n2)c(OC)c1 :: 100
CC1=C(C(=O)Nc2cc3cn[nH]c3cc2F)C(c2ccc(C(F)(F)F)cc2)CC(=O)N1 (centres undefined) :: 100
CCc1nc(-c2cccc(C)c2)c(-c2ccnc(NC(=O)c3ccccc3)c2)s1 :: 95
CCN(CCO)CCCOc1ccc2c(Nc3cc(CC(=O)Nc4cccc(F)c4)[nH]n3)ncnc2c1 :: 83
N#C/C(=C1/Nc2ccccc2S1)c1ccnc(NCCc2cccnc2)n1 :: 96
COc1cc(N2CCC(C(N)=O)CC2)ccc1Nc1nc(N)c(Cl)c(Nc2ccccc2S(=O)(=O)C(C)C)n1 :: 100
Cc1cn(-c2cc(C(=O)Nc3ccc(C)c(NC(=O)c4ccno4)c3)cc(C(F)(F)F)c2)cn1 :: 100
COc1cc(C)c(Sc2cnc(NC(=O)c3ccc(CNC(C)C(C)C)cc3)s2)cc1C(=O)N1CCN(C(C)=O)CC1 (centres undefined) :: 18

---

# tested_on: CDKL3 (human) (UniProt Q8IVW4)
# Sequence (Q8IVW4 whole entry, looked up): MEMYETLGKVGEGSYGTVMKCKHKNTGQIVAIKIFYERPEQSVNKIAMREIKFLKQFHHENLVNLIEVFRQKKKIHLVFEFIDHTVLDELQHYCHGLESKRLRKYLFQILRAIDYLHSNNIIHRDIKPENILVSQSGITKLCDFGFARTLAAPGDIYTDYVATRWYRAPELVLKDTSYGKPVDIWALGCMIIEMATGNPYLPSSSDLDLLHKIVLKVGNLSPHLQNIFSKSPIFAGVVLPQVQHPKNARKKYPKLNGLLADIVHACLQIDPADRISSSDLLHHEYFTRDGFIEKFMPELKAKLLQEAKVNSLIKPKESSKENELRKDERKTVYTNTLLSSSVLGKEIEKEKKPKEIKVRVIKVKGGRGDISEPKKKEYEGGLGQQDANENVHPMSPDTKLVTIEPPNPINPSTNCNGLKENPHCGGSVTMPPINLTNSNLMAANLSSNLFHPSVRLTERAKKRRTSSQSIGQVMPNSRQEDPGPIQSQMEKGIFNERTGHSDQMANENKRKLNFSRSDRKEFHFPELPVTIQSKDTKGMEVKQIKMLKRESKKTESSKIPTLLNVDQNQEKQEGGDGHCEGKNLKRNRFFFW
# protocol_notes: KINOMEscan competition binding
# condition_description: compound 10.0 µM
# reported kinase still bound, per cent of control; entries follow
quantity: kinase still bound, per cent of control (%)

N#C/C(=C1/Nc2ccccc2S1)c1ccnc(NCCc2cccnc2)n1 :: 100
Cc1cn(-c2cc(C(=O)Nc3ccc(C)c(NC(=O)c4ccno4)c3)cc(C(F)(F)F)c2)cn1 :: 100
N#Cc1cc(-c2ccnc(Nc3ccc(-n4cnc(-c5cccnc5)n4)cc3)n2)cc(N2CCOCC2)c1 :: 45
CC(=O)c1c(C)c2cnc(Nc3ccc(N4CCNCC4)cn3)nc2n(C2CCCC2)c1=O :: 78
CCCS(=O)(=O)Nc1ccc(F)c(C(=O)c2c[nH]c3ncc(Cl)cc23)c1F :: 100
CCc1nc(-c2cccc(C)c2)c(-c2ccnc(NC(=O)c3ccccc3)c2)s1 :: 81
CCOc1cc(N2CCC(O)CC2)ccc1Nc1ncc2c(n1)N(C)c1ccccc1C(=O)N2C :: 100
CCN1CCN(Cc2ccc(NC(=O)c3ccc(C)c(/C=C/c4cnc5[nH]ccc5c4OC)c3)cc2C(F)(F)F)CC1 :: 4
CNC(=O)Nc1ccc(-c2nc(N3CC4CCC(C3)O4)c3cnn(C4CCC5(CC4)OCCO5)c3n2)cc1 :: 95
CCN(CCO)CCCOc1ccc2c(Nc3cc(CC(=O)Nc4cccc(F)c4)[nH]n3)ncnc2c1 :: 99
CC1=C(C(=O)Nc2cc3cn[nH]c3cc2F)C(c2ccc(C(F)(F)F)cc2)CC(=O)N1 (stereo not given) :: 78
C=CC(=O)Nc1ccc(C(=O)c2sc(Nc3ccc(N4CCN(C)CC4)cc3OC)nc2N)cc1 :: 100
COc1cc2ncnc(Nc3cccc(Cl)c3)c2cc1OC :: 76
COc1cc2c(Nc3ccc(NC(=O)c4ccccc4)cc3)ncnc2cc1OCCCN1CCOCC1 :: 100
O=c1[nH]c2ccccc2n1C1CCN(Cc2ccc(-c3nc4cc5[nH]cnc5cc4nc3-c3ccccc3)cc2)CC1 :: 100

---

# reported kinase still bound, per cent of control; entries follow
# tested_on: PAK6 (human)
# protocol_notes: KINOMEscan competition binding
# condition_description: compound 10.0 µM
quantity: kinase still bound, per cent of control (%)

C=CC(=O)Nc1ccc(C(=O)c2sc(Nc3ccc(N4CCN(C)CC4)cc3OC)nc2N)cc1 :: 40
CCc1nc(-c2cccc(C)c2)c(-c2ccnc(NC(=O)c3ccccc3)c2)s1 :: 98
COc1cc(N2CCC(C(N)=O)CC2)ccc1Nc1nc(N)c(Cl)c(Nc2ccccc2S(=O)(=O)C(C)C)n1 :: 100
COc1cc(C)c(Sc2cnc(NC(=O)c3ccc(CNC(C)C(C)C)cc3)s2)cc1C(=O)N1CCN(C(C)=O)CC1 (stereo not drawn) :: 100
N#C/C(=C1/Nc2ccccc2S1)c1ccnc(NCCc2cccnc2)n1 :: 78
CCCS(=O)(=O)Nc1ccc(F)c(C(=O)c2c[nH]c3ncc(Cl)cc23)c1F :: 45
COc1ccc(N(C(=O)Oc2cc(C(=O)Nc3cccc(C(F)(F)F)c3)ccc2C)c2ccnc(Nc3ccc(N4CCN(C)CC4)cc3)n2)c(OC)c1 :: 100
CC1=C(C(=O)Nc2cc3cn[nH]c3cc2F)C(c2ccc(C(F)(F)F)cc2)CC(=O)N1 (stereo not drawn) :: 90
CNC(=O)Nc1ccc(-c2nc(N3CC4CCC(C3)O4)c3cnn(C4CCC5(CC4)OCCO5)c3n2)cc1 :: 100
CCN(CCO)CCCOc1ccc2c(Nc3cc(CC(=O)Nc4cccc(F)c4)[nH]n3)ncnc2c1 :: 98
CC(=O)c1c(C)c2cnc(Nc3ccc(N4CCNCC4)cn3)nc2n(C2CCCC2)c1=O :: 66
O=c1[nH]c2ccccc2n1C1CCN(Cc2ccc(-c3nc4cc5[nH]cnc5cc4nc3-c3ccccc3)cc2)CC1 :: 85
COc1cc2c(Nc3ccc(NC(=O)c4ccccc4)cc3)ncnc2cc1OCCCN1CCOCC1 :: 95
Cc1cn(-c2cc(C(=O)Nc3ccc(C)c(NC(=O)c4ccno4)c3)cc(C(F)(F)F)c2)cn1 :: 100
CCOc1cc(N2CCC(O)CC2)ccc1Nc1ncc2c(n1)N(C)c1ccccc1C(=O)N2C :: 100
N#Cc1cc(-c2ccnc(Nc3ccc(-n4cnc(-c5cccnc5)n4)cc3)n2)cc(N2CCOCC2)c1 :: 58
CCN1CCN(Cc2ccc(NC(=O)c3ccc(C)c(/C=C/c4cnc5[nH]ccc5c4OC)c3)cc2C(F)(F)F)CC1 :: 54
COc1cc2ncnc(Nc3cccc(Cl)c3)c2cc1OC :: 94
